The reported numbers originate from patent US20030118627A1.

System: PA 1
PROTOCOL TEXT: MTT cytotoxicity assay, PA 1 ovary
Type: cell-based
TEST CONTEXT: Homo sapiens; PA 1 Ovary, 5 mM; read-out: Percent cytotoxicity
MEASURED ATTRIBUTE: cytotoxicity at 5000 µM (%)
Give bare numbers, in %.

CCCCOC(=O)C1CCC(=O)N1C(O)C(C)=O (stereo not shown) ... 84.9
COC(=O)C1CCC(=O)N1C(OC(C)=O)C(C)=O (stereo not shown) ... 88.6
CCOC(=O)C1CCC(=O)N1C(OC(C)=O)C(C)=O (stereo not shown) ... 69
CC(=O)C(O)N1C(=O)CCC1C(=O)OCc1ccccc1 (stereo not shown) ... 78.9
CC(=O)OC(C(C)=O)N1C(=O)CCC1C(=O)OCc1ccccc1 (stereo not shown) ... 88.7

Could I get cytotoxicity at 5000 µM for every one of these entries?
1. CCOC(=O)C1CCC(=O)N1C(O)C(C)=O (stereo not shown)
2. CCCCOC(=O)C1CCC(=O)N1C(OC(C)=O)C(C)=O (stereo not shown)

1: 79.9; 2: 85.9

###

Tested on: MOLT 4
PROTOCOL TEXT: MTT cytotoxicity assay, MOLT 4 leukemia
Type: cell-based
TEST CONTEXT: Homo sapiens, 24 h; Molt 4 Leukemia; read-out: ED50 values of cytotoxicity
MEASURED ATTRIBUTE: IC50 (µM)
One number for each entry, in µM.

CCCCOC(=O)C1CCC(=O)N1C(OC(C)=O)C(C)=O (centres unmarked) ... 1500
CCOC(=O)C1CCC(=O)N1C(O)C(C)=O (centres unmarked) ... 1500

Please report IC50 for every entry that follows.
1. COC(=O)C1CCC(=O)N1C(OC(C)=O)C(C)=O (centres unmarked)
2. CC(=O)C(O)N1C(=O)CCC1C(=O)OCc1ccccc1 (centres unmarked)

[1500, 1650]

###

Test system: Miapaca2
PROTOCOL TEXT: MTT cytotoxicity assay, Miapaca2 pancreas
Format: cell-based
TEST CONTEXT: Homo sapiens, MIA PaCa-2, 2.5 mM, read-out: Percent cytotoxicity
MEASURED ATTRIBUTE: cytotoxicity at 2500 µM (%)
One number for each entry, in %.

CC(=O)OC(C(C)=O)N1C(=O)CCC1C(=O)OCc1ccccc1 (stereo not shown) ... 23.7
CCCCOC(=O)C1CCC(=O)N1C(OC(C)=O)C(C)=O (stereo not shown) ... 24.8
CC(=O)C(O)N1C(=O)CCC1C(=O)OCc1ccccc1 (stereo not shown) ... 0

Count: 2. Required value per item: cytotoxicity at 2500 µM.
1. CCCCOC(=O)C1CCC(=O)N1C(O)C(C)=O (stereo not shown)
2. CCOC(=O)C1CCC(=O)N1C(O)C(C)=O (stereo not shown)

[64.9, 28]

For each of the items listed, what is its cytotoxicity at 2500 µM?
1. CCOC(=O)C1CCC(=O)N1C(OC(C)=O)C(C)=O (stereo not shown)
2. COC(=O)C1CCC(=O)N1C(OC(C)=O)C(C)=O (stereo not shown)

1. 61
2. 3.9

###

System: PTC
PROTOCOL TEXT: MTT cytotoxicity assay, PTC colon
Assay type: cell-based
TEST CONTEXT: Homo sapiens, 10 mM, read-out: Percent cytotoxicity
MEASURED ATTRIBUTE: cytotoxicity at 10000 µM (%)
Answers are plain numbers, in %.

COC(=O)C1CCC(=O)N1C(OC(C)=O)C(C)=O (stereo not shown) ... 87.3
CCCCOC(=O)C1CCC(=O)N1C(O)C(C)=O (stereo not shown) ... 86.9
CC(=O)OC(C(C)=O)N1C(=O)CCC1C(=O)OCc1ccccc1 (stereo not shown) ... 86.4
CCOC(=O)C1CCC(=O)N1C(OC(C)=O)C(C)=O (stereo not shown) ... 79.6
CCCCOC(=O)C1CCC(=O)N1C(OC(C)=O)C(C)=O (stereo not shown) ... 89.2

Hi team, please reply with cytotoxicity at 10000 µM for each item in this list.
1. CCOC(=O)C1CCC(=O)N1C(O)C(C)=O (stereo not shown)
2. CC(=O)C(O)N1C(=O)CCC1C(=O)OCc1ccccc1 (stereo not shown)

82.2
86.9
